- experimentDescription: fission yeast growth modulation, primary screen, strain 972, OD600, 24 h, no modulator (AID 1090);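 further: basal condition with compound alone and no growth modifier present; test concentration not given here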
- conditionLabel: S. pombe 972 growth, higher = more signal, called active from +8 up or from −8 down
The entries below are paired with their reported z-score.
Reply: number alone, nothing else.

See these solved cases before continuing.
[[record]]
compound = "CCOC(=O)[C@H](CC(C)C)NC(=O)CCC1CC(OC(=O)NCCc2ccc(F)cc2)CC2(CCCC(COC(=O)NCCOc3ccccc3)O2)O1 (some centres not stated)"
datavalue = 0.374

[[record]]
compound = "COC(=O)CC=C[C@@H](C)[C@@H](C=NOC[C@H]1O[C@H](c2ccccc2)C=C[C@@H]1Oc1ccc(OC)cc1)NS(=O)(=O)c1ccc(C)cc1"
datavalue = 0.321

[[record]]
compound = "CC(C)CON=C1C[C@@H](O)[C@@H](O)[C@@H]2[C@@H]3C(=O)N(C(C)(C)C)C(=O)[C@@H]3CC[C@H]12"
datavalue = 0.674

[[record]]
compound = "COC(=O)CC=C[C@H](C)[C@@H](OCc1cccc(Br)c1)[C@@H](C)[C@H](OC)C1CCCCC1"
datavalue = -1.28

[[record]]
compound = "CO[C@@H]1C=CCC(=O)N[C@@H](C)C(=O)OC[C@@H](OC)[C@H](C)CCCC(=O)OC[C@H]1C"
datavalue = -0.111


Lab book: z-score of C[n+]1ccc(-c2ccc(CO)cc2)cc1 noted as -0.902

Lab book: z-score of CCOC(=O)NN=C1C[C@@H](O)[C@@H](O)[C@@H]2[C@@H]3C(=O)N(c4cccc(Oc5ccccc5)c4)C(=O)[C@@H]3CC[C@@H]12 noted as 0.385

====

- experimentDescription: yeast growth modulation, basal conditions, primary screen, YJM789 clinical isolate, OD600, 24 h (AID 1089);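 further: growth of clinical yeast isolate S. cerevisiae YJM 789 seeded 1000 cells per well; test concentration not given here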
- conditionLabel: S. cerevisiae YJM789 growth, higher = more signal, called active from +8 up or from −8 down
If the reported z-score equals or exceeds 0.2, assign TRUE. If not, assign FALSE.

Solved entries (count: 5):
[[record]]
compound = "CC(C)CON=C1[C@H]2CCn3c(=O)n(Cc4cc5c(cc4Cl)OCO5)c(=O)n3[C@H]2[C@H](O)[C@@H]2O[C@H]12"
categorylabel = "TRUE"

[[record]]
compound = "CO[C@H]1COC(=O)CC=C[C@@H](C)[C@H](OC)COC(=O)[C@@H]2CCCN2C(=O)CC=C[C@@H]1C"
categorylabel = "TRUE"

[[record]]
compound = "CC(CCN1CCCc2nc(C)c(C)cc21)=NO[C@@H](C)c1cc(-c2c(C)cc(C)cc2C)no1"
categorylabel = "FALSE"

[[record]]
compound = "CO[C@@H]1COC(=O)CC=C[C@@H](C)[C@H](OC)COC(=O)[C@@H](C)COC(=O)CC=C[C@H]1C"
categorylabel = "TRUE"

[[record]]
compound = "C[C@@H](c1ccccc1)N1C(=O)[C@H]2[C@H]3[C@H](O)[C@H](O)CC(=O)[C@H]3CC[C@H]2C1=O"
categorylabel = "FALSE"


Please turn your attention to the following entry.
Problem: Could you tell me if the measured z-score of CC(=O)OC[C@H]1OC(ON=CC[C@@H]2C=C[C@H](OC(C)=O)[C@@H](COC(C)=O)O2)[C@H](OC(C)=O)[C@@H](OC(C)=O)[C@@H]1OC(C)=O (some centres not stated) reaches 0.2 or more?
Solution: FALSE

====

- experimentDescription: Plasmodium falciparum growth inhibition, primary screen, strain 3D7, DAPI fluorescence, 100 nL (AID 1184);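 further: parasites grown inside human red blood cells in medium with human serum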
- conditionLabel: P. falciparum 3D7 growth, 3 d, higher = more signal
The entries below are paired with their reported z-score.
Reply: number alone, nothing else.

[[record]]
molecule = "CCOC(=O)[C@H](CC(C)C)NC(=O)CCC1CC(OC(=O)NCc2ccc3c(c2)OCO3)CC2(CCCC(COC(=O)NCC(c3ccccc3)c3ccccc3)O2)O1 (stereo not given in full)"
quantity = "z-score"
datavalue = -0.11

[[record]]
molecule = "COc1ccc(O[C@@H]2[C@H](O)CO[C@@H]2C=Cc2ccccc2)cc1"
quantity = "z-score"
datavalue = -0.971

[[record]]
molecule = "CO[C@H]1COC(=O)CC=C[C@@H](C)[C@H](OC)COC(=O)CCC[C@@H]1C"
quantity = "z-score"
datavalue = 0.0095

[[record]]
molecule = "CC(=O)OC[C@H]1O[C@@H](ON=C(C)CCN2CCCc3nc(C)c(C)cc32)[C@H](OC(C)=O)[C@@H](OC(C)=O)[C@@H]1OC(C)=O"
quantity = "z-score"
datavalue = -1.3

[[record]]
molecule = "Cc1ccc(S(=O)(=O)N[C@@H]2COC(=O)[C@@H](C)COC(=O)CC=C[C@H]2C)cc1"
quantity = "z-score"
datavalue = 0.393


Lab book: z-score of CC(C)=CCCC(C)=CCON=C1C[C@@H](O)[C@@H](O)[C@@H]2[C@@H]3C(=O)N(C(C)(C)C)C(=O)[C@@H]3CC[C@H]12 noted as 1.46

Lab book: z-score of CCOC(=O)CCN1C(=O)[C@H]2[C@H]3[C@H](O)[C@H](O)CC(=NOCc4ccccc4)[C@H]3CC[C@H]2C1=O noted as 0.172

Lab book: z-score of CC(C)CON=C1C[C@@H](O)[C@@H](O)[C@@H]2[C@@H]3C(=O)N(C4CCCCC4)C(=O)[C@@H]3CC[C@@H]12 noted as -0.398

Lab book: z-score of Cc1cc2c(nc1C)CCCCN2CC(C)ON=C[C@@H](C)[C@H](OCc1ccccc1)C(C)C (stereo not given in full) noted as -0.109

Lab book: z-score of CO[C@H]1COC(=O)[C@@H](C)COC(=O)[C@H](C)NC(=O)CC=C[C@H]1C noted as -0.455

====

- Tested on: wheat germ agglutinin (Triticum aestivum), Alexa647-labelled
- experimentDescription: wheat germ agglutinin binders on compound microarrays, profiling panel, artefact control for SMM control-protein annotation, biochemical, small-molecule microarray, 635/667 nm fluorescence (AID 1140);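 further: score merges 667 nm feature emission with signal to noise over triplicate slides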
- conditionLabel: WGA-A647 binding, 635 nm fluorescence, higher = more signal
The entries below are paired with their reported composite z-score.
Reply: number alone, nothing else.

See these solved cases before continuing.
[[record]]
compound = "CC(C)(C)N1C(=O)[C@H]2[C@H]3[C@H](O)[C@H](O)CC(=O)[C@H]3CC[C@H]2C1=O"
datavalue = 0.0902

[[record]]
compound = "CON=C[C@@H](NS(=O)(=O)c1ccc(C)cc1)[C@H](C)C=CCC(=O)OC"
datavalue = -0.35

[[record]]
compound = "CO[C@H]1COC(=O)[C@H](C)NC(=O)CC=C[C@@H](C)[C@H](OC)COC(=O)[C@@H](OCc2ccccc2)C=C[C@@H]1C"
datavalue = -1.25

[[record]]
compound = "CCN1C(=O)[C@H]2[C@H]3[C@H](O)[C@H](O)CC(=NOC[C@H]4O[C@H](c5ccccc5)C=C[C@@H]4Oc4ccc(OC)cc4)[C@@H]3CC[C@H]2C1=O"
datavalue = 0.246

[[record]]
compound = "CC(C)CON=C1C[C@@H](O)[C@@H](O)[C@@H]2[C@@H]3C(=O)N(c4cccc(Oc5ccccc5)c4)C(=O)[C@@H]3CC[C@@H]12"
datavalue = 0.561


Lab book: composite z-score of C[C@H]1CC[C@H]2C(=O)O[C@H](COc3ccc(C(C)(C)C)cc3)CN2[C@@H]1c1ccc(Br)cc1 noted as 0.034

Lab book: composite z-score of CO[C@H]1COC(=O)CC=C[C@@H](C)[C@H](OC)COC(=O)CCC[C@@H]1C noted as -0.173

Lab book: composite z-score of CCOC(=O)NN=C1C[C@@H](O)[C@@H](O)[C@@H]2[C@@H]3C(=O)N([C@@H](C)c4ccccc4)C(=O)[C@@H]3CC[C@@H]12 noted as 0.193

Lab book: composite z-score of O=C1C=C[C@@H](O)[C@@H]2[C@@H]3C(=O)N(c4ccc(F)cc4F)C(=O)[C@@H]3CC[C@@H]12 noted as 0.215

Lab book: composite z-score of CC(CCN1CCCc2nc(C)c(C)cc21)=NOC(C)CN1CCCCc2nc(C)c(C)cc21 (centres undefined) noted as 0.829

Lab book: composite z-score of CC(C)=CCCC(C)=CCON=C1C[C@@H](O)[C@@H](O)[C@@H]2[C@@H]3C(=O)N(c4cccc(Oc5ccccc5)c4)C(=O)[C@@H]3CC[C@@H]12 noted as 0.0969

Lab book: composite z-score of C#CCCCON=C1C[C@@H](O)[C@@H](O)[C@@H]2[C@@H]3C(=O)N(C(C)(C)C)C(=O)[C@@H]3CC[C@H]12 noted as 0.903

Lab book: composite z-score of COC(=O)CC=C[C@@H](C)[C@H](OCc1cccc(-c2ccccc2)c1)C1CCCCC1 noted as 0.534

Lab book: composite z-score of C[C@@H](c1ccccc1)N1C(=O)[C@H]2[C@H]3[C@H](O)[C@H](O)CC(=NO[C@@H]4O[C@H](CO)[C@@H](O)[C@H](O)[C@H]4O)[C@@H]3CC[C@H]2C1=O noted as -0.0604

Lab book: composite z-score of C#CCCCON=C1[C@H]2CCn3c(=O)n(C)c(=O)n3[C@H]2[C@H](O)[C@@H]2O[C@H]12 noted as -0.0602

Lab book: composite z-score of O=C1CCCC=C1C(O)CCOC(c1ccccc1)(c1ccccc1)c1ccccc1 (centres undefined) noted as -0.129

Lab book: composite z-score of CCc1cc2c(nc1CC)CCN(CCC(C)=NO[C@H](C)c1cn([C@H](CO)Cc3ccccc3)nn1)C2 noted as 0.55

Lab book: composite z-score of C#CCCCON=C1C[C@@H](O)[C@@H](O)[C@@H]2[C@@H]3C(=O)N(C(C)(C)C)C(=O)[C@@H]3CC[C@@H]12 noted as 0.171

Lab book: composite z-score of CCCNC(=O)OC[C@H]1O[C@H](CCON=C(C)CCN2CCc3nc(CC)c(CC)cc3C2)C=C[C@@H]1Oc1ccc(OC)cc1 noted as 0.316
